Measured values drawn from patent US4473577A for this set.

assay: Test for acute oral toxicity; design: species or system male mice of the ddY strain; conditions: mouse, in vivo, male ddY mice, 7 days observation, estimated
Structures can show the parent of a compound that is named as a salt.
experimental readout: LD50 at 168 h

Q. Input c1ccc([C@H]2CN3CCSC3=N2)cc1 [Levamisole hydrochloride, reference compound] , output reported LD50 at 168 h.
A. 200 to 300 mg/kg
